src = patent EP1403247A1

Measured log10(IC50), listed per entry.
system: VLA-4 (a4b1 integrin) (Homo sapiens, UniProt P05556+P13612)
Construct: followed by 10 µl of Ramos cell-derived VLA-4; endogenous in cells; host or cells: Ramos cells (VLA-4 derived from them; method of extraction or purification not described)
Sequence (P13612 34-1032): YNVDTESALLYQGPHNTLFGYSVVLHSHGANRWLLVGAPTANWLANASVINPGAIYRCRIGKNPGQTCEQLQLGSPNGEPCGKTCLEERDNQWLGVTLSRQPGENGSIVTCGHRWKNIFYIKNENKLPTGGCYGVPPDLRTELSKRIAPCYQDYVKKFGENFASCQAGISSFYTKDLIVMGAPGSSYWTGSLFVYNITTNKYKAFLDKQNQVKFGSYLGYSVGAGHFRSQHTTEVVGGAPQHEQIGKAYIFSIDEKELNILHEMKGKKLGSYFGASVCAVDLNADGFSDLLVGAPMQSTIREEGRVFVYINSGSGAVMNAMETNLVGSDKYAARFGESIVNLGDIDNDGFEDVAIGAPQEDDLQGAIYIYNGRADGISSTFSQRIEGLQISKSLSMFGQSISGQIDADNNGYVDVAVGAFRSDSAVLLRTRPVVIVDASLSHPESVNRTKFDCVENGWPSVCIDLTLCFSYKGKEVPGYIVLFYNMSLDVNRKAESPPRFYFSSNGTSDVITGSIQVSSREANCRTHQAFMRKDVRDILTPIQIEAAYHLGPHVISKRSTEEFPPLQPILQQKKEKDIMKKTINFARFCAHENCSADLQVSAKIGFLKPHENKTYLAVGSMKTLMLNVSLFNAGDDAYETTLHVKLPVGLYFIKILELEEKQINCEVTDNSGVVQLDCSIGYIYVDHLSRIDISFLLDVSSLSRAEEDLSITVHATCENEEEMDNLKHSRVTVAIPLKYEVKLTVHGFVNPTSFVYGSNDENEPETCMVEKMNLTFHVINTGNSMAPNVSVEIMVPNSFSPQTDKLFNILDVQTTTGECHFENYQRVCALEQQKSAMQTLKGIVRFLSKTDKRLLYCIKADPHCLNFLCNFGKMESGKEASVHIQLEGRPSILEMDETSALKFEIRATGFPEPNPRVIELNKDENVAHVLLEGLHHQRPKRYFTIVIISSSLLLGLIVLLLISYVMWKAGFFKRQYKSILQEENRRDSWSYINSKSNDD
Sequence (P05556 21-798): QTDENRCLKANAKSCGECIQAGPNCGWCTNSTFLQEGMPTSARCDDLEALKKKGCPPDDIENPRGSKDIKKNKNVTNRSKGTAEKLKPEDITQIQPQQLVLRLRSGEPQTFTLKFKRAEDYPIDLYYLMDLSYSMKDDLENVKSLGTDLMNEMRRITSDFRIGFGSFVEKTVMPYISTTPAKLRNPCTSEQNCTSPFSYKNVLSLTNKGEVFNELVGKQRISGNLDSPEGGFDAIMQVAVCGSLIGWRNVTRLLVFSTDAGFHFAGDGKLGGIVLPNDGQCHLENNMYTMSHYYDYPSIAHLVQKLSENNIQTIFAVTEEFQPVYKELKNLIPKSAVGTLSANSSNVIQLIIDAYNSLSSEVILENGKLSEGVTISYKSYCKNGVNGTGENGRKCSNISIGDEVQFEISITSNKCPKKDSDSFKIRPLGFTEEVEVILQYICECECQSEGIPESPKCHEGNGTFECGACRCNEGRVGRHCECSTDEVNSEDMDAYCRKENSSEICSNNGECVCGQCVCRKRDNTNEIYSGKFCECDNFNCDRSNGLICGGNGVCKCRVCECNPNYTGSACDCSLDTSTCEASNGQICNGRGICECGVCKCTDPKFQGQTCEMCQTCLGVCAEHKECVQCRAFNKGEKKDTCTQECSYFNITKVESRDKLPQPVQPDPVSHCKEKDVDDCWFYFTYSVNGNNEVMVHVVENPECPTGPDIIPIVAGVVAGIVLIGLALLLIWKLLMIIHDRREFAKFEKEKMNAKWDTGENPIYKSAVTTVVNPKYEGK
measurement-notes: VLA-4 / VCAM-1 Screening Assay (solid-phase, dual antibody ELISA)
setup-conditions: Ramos cell-derived VLA-4 binding to immobilized recombinant human VCAM-1; 1 mM MnCl2, 2 hr at 37 °C
The figures below represent log10 of IC50, where IC50 is stated in nM.

compound="O=C(NC(Cc1ccc(NC(=O)c2c(Cl)cccc2Cl)cc1)C(=O)O)c1ccccc1Cc1ccccc1 (centres unmarked) [Example 31]" quantitative_readout=-0.29
compound="COc1ccc(Br)c(C(=O)NC(Cc2ccc(NC(=O)c3c(C)ccnc3C)cc2)C(=O)O)c1 (centres unmarked) [Example 108]" quantitative_readout=-0.20

Asked: # input compound: Cc1cc(CC(NC(=O)c2c(C)cccc2Cl)C(=O)O)ccc1NC(=O)CCc1cccc(O)c1 (centres unmarked) [Example 120] ; wanted: its log10(IC50)
Given back: 0.65

Asked: # log10(IC50) lookup, item Cc1cc(CC(NC(=O)c2c(C)cccc2Cl)C(=O)O)ccc1NC(=O)Cc1cccc(O)c1 (centres unmarked) [Example 121]
Given back: 0.76

Asked: What log10(IC50) value was documented for this compound, Cc1cc(CC(NC(=O)c2c(C)cccc2Cl)C(=O)O)ccc1NC(=O)c1c(Cl)cccc1Cl (centres unmarked) [Example 123] ?
Given back: 0.23
